- targetOfAssay: Alpha-1A adrenergic receptor (Homo sapiens, UniProt P35348)
- Sequence (P35348 whole entry): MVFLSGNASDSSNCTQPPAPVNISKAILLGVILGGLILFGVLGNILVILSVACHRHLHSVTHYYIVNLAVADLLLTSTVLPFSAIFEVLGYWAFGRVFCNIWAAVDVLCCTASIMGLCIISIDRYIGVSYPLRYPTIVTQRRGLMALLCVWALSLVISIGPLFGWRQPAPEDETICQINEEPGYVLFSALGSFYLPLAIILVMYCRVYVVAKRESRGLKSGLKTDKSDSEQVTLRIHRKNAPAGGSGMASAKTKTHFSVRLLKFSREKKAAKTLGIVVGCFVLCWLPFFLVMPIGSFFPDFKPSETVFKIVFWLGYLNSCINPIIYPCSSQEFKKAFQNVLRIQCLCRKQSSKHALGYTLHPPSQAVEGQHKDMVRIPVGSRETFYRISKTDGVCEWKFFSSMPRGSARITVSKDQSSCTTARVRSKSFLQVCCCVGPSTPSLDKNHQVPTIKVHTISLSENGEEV
- assay: Binding affinity to human adrenergic alpha1A receptor expressed in rat intact fibroblasts
pKi: −log10 of the molar value.
Provide the reported pKi of each item.

Some solved entries appear below for comparison.
>  <smilesRecord>
CN1CCC[C@@H]1Cn1nc(CC2CCCCC2)c2ccccc2c1=O

>  <experimentalValue>
< 5.70

$$$$
>  <smilesRecord>
O=c1c2ccccc2c(Cc2ccc(O)cc2)nn1C[C@H]1CCCN1CCCCc1ccc(OCCCN2CCCCCC2)cc1

>  <experimentalValue>
7.00

$$$$

Now consider the entry below.
Data request: Reported pKi for `CN1CCC[C@@H]1Cn1nc(Cc2ccc(C(C)(C)C)cc2)c2ccccc2c1=O` : what is it?
Data returned: < 5.70
